Target: KRAS WT (Homo sapiens, UniProt P01116+P62937)
Sequence (P01116 1-169 isoform P01116-2 limits assumed, one chain of several): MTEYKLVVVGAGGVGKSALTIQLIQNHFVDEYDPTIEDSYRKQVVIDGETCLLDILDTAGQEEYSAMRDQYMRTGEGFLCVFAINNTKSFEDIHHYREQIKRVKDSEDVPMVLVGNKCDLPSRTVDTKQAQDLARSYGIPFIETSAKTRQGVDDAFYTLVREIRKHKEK
Assay: Disruption of BRAF RBD interaction with Ras (FRET / MOA assay, with Cyclophilin A)
Format: biochemical
Settings: KRAS WT; read-out: KRAS WT FRET data IC50

molecule | IC50
CCn1c(-c2cccnc2[C@H](C)OC)c2c3cc(ccc31)-c1csc(n1)C[C@H](NC(=O)[C@H](C(C)C)N(C)C(=O)N1CC([C@H](C)OC)C1)C(=O)N1CCC[C@H](N1)C(=O)OCC(C)(C)C2 (atropisomer, axis not shown) | 100 to 1000 nM
C=CC(=O)N1CC[C@H](C(=O)N(C)[C@H](C(=O)N[C@H]2Cc3cc(OC(=O)CN)cc(c3)-c3ccc4c(c3)c(c(-c3ccccc3CCOC)n4CC)CC(C)(C)COC(=O)[C@@H]3CCCN(N3)C2=O)C(C)C)C1 | 1000 to 10000 nM
CCn1c(-c2cccnc2[C@H](C)OC)c2c3cc(ccc31)-c1cc(O)cc(c1)C[C@H](NC(=O)[C@H](C(C)C)N(C)C(=O)[C@H]1CCN(C)C1)C(=O)N1CCC[C@H](N1)C(=O)OCC(C)(C)C2 | 10 to 100 nM
C=CC(=O)N1CC[C@H](C(=O)N(C)[C@H](C(=O)N[C@H]2Cc3cc(O)cc(c3)-c3ccc4c(c3)c(c(-c3ccc(CN5CC[C@@H](O)C5)cc3)n4CC)CC(C)(C)COC(=O)[C@@H]3CCCN(N3)C2=O)C(C)C)C1 | > 10000 nM

====

Biological target: KRAS G12C (Homo sapiens, UniProt P01116+P62937, G12C)
Sequence (P01116 1-169 isoform P01116-2 G12C): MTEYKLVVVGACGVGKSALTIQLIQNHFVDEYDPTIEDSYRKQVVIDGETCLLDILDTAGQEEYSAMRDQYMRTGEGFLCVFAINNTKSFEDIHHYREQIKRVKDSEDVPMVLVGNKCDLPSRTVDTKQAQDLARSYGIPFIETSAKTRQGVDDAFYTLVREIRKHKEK
Sequence (P62937 whole entry): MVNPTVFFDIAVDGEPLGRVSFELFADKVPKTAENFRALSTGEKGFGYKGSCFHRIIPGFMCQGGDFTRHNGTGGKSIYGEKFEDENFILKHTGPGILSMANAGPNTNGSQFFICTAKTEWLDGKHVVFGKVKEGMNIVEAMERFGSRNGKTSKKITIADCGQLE
Experiment: Disruption of BRAF RBD interaction with Ras (FRET / MOA assay, with Cyclophilin A)
Format: biochemical
Conditions: read-out: KRAS G12C FRET data, IC50
Source text: This protocol may also be executed substituting other Ras proteins or nucleotides. The purpose of this biochemical assay was to measure the ability of test compounds to facilitate ternary complex formation between a nucleotide-loaded K-Ras isoform and Cyclophilin A; the resulting ternary complex disrupts binding to a BRAF^RBD construct, inhibiting K-Ras signaling through a RAF effector. Data is reported as IC50 values. […]
pIC50: −log10 of the molar value.

molecule | pIC50
CCn1c(-c2cccnc2[C@H](C)OC)c2c3cc(ccc31)-c1cc(O)cc(c1)C[C@H](NC(=O)[C@H](C(C)C)N(C)C(=O)[C@H]1C[C@@H]1O)C(=O)N1CCC[C@H](N1)C(=O)OCC(C)(C)C2 (single isomer, unassigned) | 7.00 to 8.00
CCn1c(-c2cccnc2[C@H](C)OC)c2c3cc(ccc31)-c1csc(n1)C[C@H](NC(=O)[C@H](C(C)C)N(C)C(=O)N1CCN(C)C3(CC3)C1)C(=O)N1CCC[C@H](N1)C(=O)OCC(C)(C)C2 | 6.00 to 7.00
CCn1c(-c2cccnc2[C@H](C)OC)c2c3cc(ccc31)-c1csc(n1)C[C@H](NC(=O)[C@H](C(C)C)N(C)C(=O)[C@H]1CCN(C(=O)C(C)(C)N(C)C)C1)C(=O)N1CCC[C@H](N1)C(=O)OCC(C)(C)C2 | 5.00 to 6.00
CCn1c(-c2cccnc2[C@H](C)OC)c2c3cc(ccc31)-c1csc(n1)C[C@H](NC(=O)[C@H](C(C)C)N(C)C(=O)N1CC3CC(C1)N3C)C(=O)N1CCC[C@H](N1)C(=O)OCC(C)(C)C2 | 6.00 to 7.00
CCn1c(-c2cnccc2COC)c2c3cc(ccc31)-c1cc(O)cc(c1)C[C@H](NC(=O)[C@@H](OC(=O)N(C)C)C(C)C)C(=O)N1CCC[C@H](N1)C(=O)OCC(C)(C)C2 | 6.00 to 7.00
CCn1c(-c2cc(N3CCN(C)CC3)cnc2[C@H](C)OC)c2c3cc(ccc31)-c1cc(O)cc(c1)C[C@H](NC(=O)[C@H](C1CCCC1)N(C)C(=O)[C@H]1OCC[C@H]1c1ccccc1)C(=O)N1CCC[C@H](N1)C(=O)OCC(C)(C)C2 | 6.00 to 7.00
CCn1c(-c2cccnc2[C@H](C)OC)c2c3cc(ccc31)-c1csc(n1)C[C@H](NC(=O)[C@H](C(C)C)N(C)C(=O)N1CC(CO)C1)C(=O)N1CCC[C@H](N1)C(=O)OCC(C)(C)C2 (atropisomer, axis not shown) | 7.00 to 8.00
CCn1c(-c2cnccc2COC)c2c3cc(ccc31)-c1cc(O)cc(c1)C[C@H](NC(=O)[C@H]([C@@H](C)OC)N(C)C(C)=O)C(=O)N1CCC[C@H](N1)C(=O)OCC(C)(C)C2 | 6.00 to 7.00
CCn1c(-c2cccnc2[C@H](C)OC)c2c3cc(ccc31)-c1csc(n1)C[C@H](NC(=O)[C@H](C(C)C)N(C)C(=O)[C@@H]1OCC[C@@H]1C)C(=O)N1CCC[C@H](N1)C(=O)OCC(C)(C)C2 | 5.00 to 6.00
CCn1c(-c2cccnc2[C@H](C)OC)c2c3cc(ccc31)-c1cc(O)cc(c1)C[C@H](NC(=O)[C@H](C1CCCC1)N(C)C(=O)N1CCS(=O)(=NC)CC1)C(=O)N1CCC[C@H](N1)C(=O)OCC(C)(C)C2 | 7.00 to 8.00
CCn1c(-c2cccnc2[C@H](C)OC)c2c3cc(ccc31)-c1csc(n1)C[C@H](NC(=O)[C@H](C(C)C)N(C)C(=O)[C@H]1CCN(C)C1)C(=O)N1CCC[C@H](N1)C(=O)OCC(C)(C)C2 | 5.00 to 6.00
CCn1c(-c2cccnc2[C@H](C)OC)c2c3cc(ccc31)-c1csc(n1)C[C@H](NC(=O)[C@H](C(C)C)N(C)C(=O)N1CC[C@@H]1CN(C)C)C(=O)N1CCC[C@H](N1)C(=O)OCC(C)(C)C2 | 6.00 to 7.00
CCn1c(-c2cccnc2[C@H](C)OC)c2c3cc(ccc31)-c1csc(n1)C[C@H](NC(=O)[C@H](C(C)C)N(C)C(=O)N1CC3(CC3)C1)C(=O)N1CCC[C@H](N1)C(=O)OCC(C)(C)C2 (atropisomer, axis not shown) | 7.00 to 8.00
CCn1c(-c2cnccc2COC)c2c3cc(ccc31)-c1cc(O)cc(c1)C[C@H](NC(=O)[C@H](C(C)C)N(C)C(=O)[C@@H]1CCOC1)C(=O)N1CCC[C@H](N1)C(=O)OCC(C)(C)C2 | 6.00 to 7.00
CCn1c(-c2cccnc2[C@H](C)OC)c2c3cc(ccc31)-c1csc(n1)C[C@H](NC(=O)[C@H](C(C)C)N(C)C(=O)N1CC(NC)C1)C(=O)N1CCC[C@H](N1)C(=O)OCC(C)(C)C2 (atropisomer, axis not shown) | 6.00 to 7.00
CCn1c(-c2cnccc2COC)c2c3cc(ccc31)-c1cc(O)cc(c1)C[C@H](NC(=O)[C@H](C(C)C)N(C)C(=O)OC1CN(C)C1)C(=O)N1CCC[C@H](N1)C(=O)OCC(C)(C)C2 | 6.00 to 7.00
CCn1c(-c2cnccc2COC)c2c3cc(ccc31)-c1cc(O)cc(c1)C[C@H](NC(=O)[C@H](C(C)C)N(C)C(=O)OC1CNC1)C(=O)N1CCC[C@H](N1)C(=O)OCC(C)(C)C2 | 6.00 to 7.00
